Field IC50: reported value for BTK (Homo sapiens, UniProt Q06187); entries drawn from several documents.

Reference set, count: 5
{"columns": ["COMPOUND", "TGT", "IC50"],
 "data": [
  ["Cc1cc[nH]c(=O)c1-c1ccc2nc(Nc3cccc(NC(=O)[C@@H]4CCCN4)c3)ncc2c1", "BTK (Homo sapiens, UniProt Q06187)", "100 to 1000 nM"],
  ["CC#CC(=O)N[C@H]1CCCC(c2c(F)cc(C(N)=O)c3[nH]c4c(c23)CCC4)C1 (single isomer, unassigned)", "BTK (Homo sapiens, UniProt Q06187)", "10 to 100 nM"],
  ["Cc1cc(-c2ccnc(N)n2)ccc1CNC(=O)c1ccc2c(n1)CCNC2", "BTK (Homo sapiens, UniProt Q06187)", "> 10000 nM"],
  ["C=CC(=O)N1CCCC(Nc2cc(CN3CCOCC3)cc(Nc3ncc(C)s3)n2)C1 (stereo not drawn)", "BTK (Homo sapiens, UniProt Q06187)", "4.7 nM"],
  ["O=C(CNc1cc(Cl)cc(Cl)c1)N1CCC[C@H](Nc2ccnc3[nH]ccc23)C1", "BTK (Homo sapiens, UniProt Q06187)", "< 100 nM"]
]}

Request: Returns the measured IC50 for the input compound. Input: Cc1cc(-c2ncnc3nc(N4CCC(C(=O)O)C4)[nH]c23)ccc1CNC(=O)c1cnc(C(C)(C)C)s1 (stereo not drawn)
Response: < 10 nM

Request: Fill in the blank: the reported IC50 of C=CC(=O)N1CCC[C@@H](n2nc(-c3ccc(C(=O)Nc4ccccc4)cc3)c3c(N)ncc(CO)c32)C1 is ____.
Response: 8 nM

Request: I'd like to know its IC50. The compound in question is Cn1cc(-c2cn3nccc3c(-c3ccc(CNC(=O)c4cn(C(C)(C)C)nn4)c(C(F)F)c3)n2)cn1
Response: < 1 nM

Request: # query: IC50 of entry C=CC(=O)N1CC2(CC(n3c(NC(=O)c4ccc(C(F)F)s4)nc4cc(CN[C@@H](C)C(C)(C)C)ccc43)C2)C1
Response: 378 nM

Request: Can you share its IC50? I mean this compound: Nc1nccn2c1c(-c1ccc(Oc3ccccc3)cc1)nc2[C@H]1CC[C@H](O)CC1
Response: ≤ 10 nM

Request: Any idea what IC50 was measured for C=CC(=O)N1CCC[C@H](Nc2cc(Cc3cccnc3)cc(Nc3ncc(C)s3)n2)C1 ?
Response: 3.9 nM

###

// read-out IC50, gathered for BTK (Homo sapiens) from published studies

Example results:
{"columns": ["COMPOUND", "TGT", "IC50"],
 "data": [
  ["O=C([C@H](Nc1cc(F)cc(Cl)c1)C1CC1)N1CCCCC12CCCN(c1ncnc3[nH]ncc13)C2 (stereo partly drawn)", "BTK (Homo sapiens)", "1000 to 10000 nM"],
  ["Cc1cc(-c2ccnc(Nc3cnn(CCO)c3)n2)ccc1CNC(=O)N1CC(OC(C)C)C1", "BTK (Homo sapiens)", "< 10 nM"]
]}

# next compound below
Request: What reported IC50 corresponds to CC(C)(C)c1nc(C(=O)NCc2ccc(-c3nc(N4CCOCC4)cn4nccc34)cc2)no1 on BTK (Homo sapiens)?
Response: 1000 to 10000 nM

###

Please find below IC50 data on BTK (Homo sapiens) compiled from the literature.
Sequence (Q06187 whole entry): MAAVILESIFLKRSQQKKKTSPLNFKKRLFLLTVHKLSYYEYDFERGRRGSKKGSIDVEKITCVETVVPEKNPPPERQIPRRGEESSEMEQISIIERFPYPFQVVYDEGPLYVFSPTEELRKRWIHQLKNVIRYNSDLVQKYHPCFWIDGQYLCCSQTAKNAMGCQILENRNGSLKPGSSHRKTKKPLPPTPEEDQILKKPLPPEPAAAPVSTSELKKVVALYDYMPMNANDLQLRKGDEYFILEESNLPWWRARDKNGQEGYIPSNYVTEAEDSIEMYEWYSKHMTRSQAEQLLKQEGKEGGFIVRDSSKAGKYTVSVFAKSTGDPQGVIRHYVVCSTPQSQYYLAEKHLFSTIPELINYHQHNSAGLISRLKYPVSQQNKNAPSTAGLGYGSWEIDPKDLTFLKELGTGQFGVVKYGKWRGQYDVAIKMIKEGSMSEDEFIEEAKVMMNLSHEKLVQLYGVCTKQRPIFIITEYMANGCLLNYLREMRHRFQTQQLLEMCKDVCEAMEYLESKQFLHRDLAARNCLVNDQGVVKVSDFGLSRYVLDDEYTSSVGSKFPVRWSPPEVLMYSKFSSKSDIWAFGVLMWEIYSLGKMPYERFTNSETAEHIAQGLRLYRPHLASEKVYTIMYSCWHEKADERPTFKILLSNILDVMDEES

Worked examples, 2 compounds total:
{"columns": ["COMPOUND", "RESULT_VALUE"],
 "data": [
  ["C=CC(=O)N1CCC(c2nc(-c3ccc(C(=O)Nc4ccccn4)c(F)c3)n3c(N)nccc23)C1 (stereo not drawn)", "< 100 nM"],
  ["CC(NC(=O)c1cc2c(s1)CCCC2)c1ccc(-c2ncnc3[nH]ccc23)cc1C(F)(F)F (stereo not drawn)", "10 to 99 nM"]
]}

Attention now shifts to the item below.
Request: Lab note: need IC50 with BTK (Homo sapiens) for entry CC#CC(=O)N[C@H]1CCC[C@H](c2c(F)cc(C(N)=O)c3[nH]c(C)c(Cl)c23)C1 , please look it up.
Response: 1 to 10 nM
